# target entity: T1, AFP158/HLA-A*02:01 complex (human)
# T1 construct: flowed as analyte in SPR
# measurement protocol: SPR, fold vs AS170036 VL1VH1;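 also: crude scFv muteins immobilised on a sensor chip, peptide–MHC complex passed over at several concentrations, binding then buffer-driven dissociation, KD estimated from on- and off-rates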
property measured: Affinity increase (fold)
Answer with a number only, understood to be in fold.

// field: Affinity increase; key: AS170036 VL1VH1-56N98I108A (scFv, also called 52-AS170036 VL1VH1-56N98I108A) scFv: QSALTQPRSVSGSPGQSVTISCAGTSSDVGSENYVSWYQQHPGKAPKLMIYQVNKRASGVPDRFSGSKSGNTASLTISGLQAEDEADYYCASYRSSDINIVFGGGTKLTVLGGGGSGGGGSGGGGSEVQLVESGGGLVQPGGSLRLSCAASGFTFSSYAMSWVRQAPGKGLEWVSTINSGTNSPYYADSVKGRFTISRDNSKNTLYLQMNSLRAEDTAVYYCAKNFFDGSWFLAPPAMDYWGQGTLVTVSSHHHHHH ; value = 62

// field: Affinity increase; key: AS170036 VL1VH1-56N98F108S (scFv, also called 51-AS170036 VL1VH1-56N98F108S) scFv: QSALTQPRSVSGSPGQSVTISCAGTSSDVGSENYVSWYQQHPGKAPKLMIYQVNKRASGVPDRFSGSKSGNTASLTISGLQAEDEADYYCASYRSSDFNIVFGGGTKLTVLGGGGSGGGGSGGGGSEVQLVESGGGLVQPGGSLRLSCAASGFTFSSYAMSWVRQAPGKGLEWVSTINSGTNSPYYADSVKGRFTISRDNSKNTLYLQMNSLRAEDTAVYYCAKNFFDGSWFLSPPAMDYWGQGTLVTVSSHHHHHH ; value = 17.6

// field: Affinity increase; key: AS170036 VL1VH1-57M98I108A (scFv, also called 79-AS170036 VL1VH1-57M98I108A) scFv: QSALTQPRSVSGSPGQSVTISCAGTSSDVGSENYVSWYQQHPGKAPKLMIYQVNKRASGVPDRFSGSKSGNTASLTISGLQAEDEADYYCASYRSSDINIVFGGGTKLTVLGGGGSGGGGSGGGGSEVQLVESGGGLVQPGGSLRLSCAASGFTFSSYAMSWVRQAPGKGLEWVSTINSGTGMPYYADSVKGRFTISRDNSKNTLYLQMNSLRAEDTAVYYCAKNFFDGSWFLAPPAMDYWGQGTLVTVSSHHHHHH ; value = 28
